Collected IC50 values appear next to each entry.
- System: BT-474 human breast cancer cells
- PROCEDURE_TEXT: Cell proliferation suppression test, BT-474 (SRB staining)
- Format: cell-based
- RUN_CONDITIONS: BT-474 cells, incubated for 3 or 5 days, SRB protein staining, absorbance 550 nm, read-out: Cell proliferation inhibition (IC50; μM) BT-474
Numeric answer plus unit only.

Examples from the recorded data:
COc1cccc(-c2nc3ncc(-c4ccccc4)cc3n2CC2CC2)c1 1.1 µM
Clc1ccc(Cc2nc3cc(-c4ccco4)cnc3[nH]2)cc1 0.25 µM
COc1cccc(-c2nc3cc(-c4ccccc4)cnc3[nH]2)c1 0.28 µM
Fc1ccc(/C=C/c2nc3cc(-c4ccco4)ccc3o2)c(F)c1 0.83 µM
COc1ccc(Cc2nc3cc(-c4ccco4)cnc3[nH]2)cc1OC 0.49 µM

// IC50 lookup, key: COc1cccc(-c2nc3ncc(-c4ccccc4)cc3n2Cc2ccccc2O)c1
0.19 µM
